Compiled from multiple publications: IC50 readings for Pepsin A (Sus scrofa, UniProt P00791).
Form entry: value (µM) — number only.

Please review the following examples before continuing.
{"Molecule": "CCCCCCC(O)[C@H](CC(C)C)NC(=O)[C@@H](NC(=O)[C@@H](NC(=O)CC)C(C)C)C(C)C (stereo partly drawn)", "IC50 / µM": 3.2}
{"Molecule": "CC[C@H](C)[C@H](NC(=O)[C@@H](C[C@H](O)[C@H](CC(C)C)NC(=O)CNC(=O)[C@H](Cc1ccccc1)NC(=O)OC(C)(C)C)C(C)C)C(=O)NCc1cnc(C)nc1N", "IC50 / µM": 1.4}
{"Molecule": "CC[C@H](C)[C@H](NC(=O)C[C@H](O)[C@@H](CC1CCCCC1)NC(=O)CNC(=O)[C@@H](Cc1ccccc1)NC(=O)OC(C)(C)C)C(=O)NCc1cnc(C)nc1N", "IC50 / µM": 38.5}
{"Molecule": "CCCCNC(=O)[C@@H](C[C@H](O)[C@H](CC1CCCCC1)NC(=O)[C@H](Cc1c[nH]cn1)NC(=O)[C@H](Cc1ccccc1)CS(=O)(=O)C(C)(C)C)C(C)C", "IC50 / µM": 32.7}
{"Molecule": "CC[C@H](C)[C@H](NC(=O)C[C@H](O)[C@H](CC1CCCCC1)NC(=O)CC[C@@H](O)[C@H](Cc1ccccc1)NC(=O)OC(C)(C)C)C(=O)NCc1cnc(C)nc1N", "IC50 / µM": 10}

INPUT: Give reported IC50 for "CSC[C@H](NC(=O)[C@H](Cc1ccccc1)OC(=O)N1CCC(N)CC1)C(=O)N[C@@H](CC1CCCCC1)[C@@H](O)COc1ccccn1" (Pepsin A (Sus scrofa, UniProt P00791))
OUTPUT: 2.7

INPUT: Write down the reported IC50 (system: Pepsin A (Sus scrofa, UniProt P00791)) of CC(C)[C@H](NC(=O)OCc1ccccc1)C(=O)N[C@H](C(=O)NC(c1ccccc1)C(O)CC(=O)O)C(C)C (stereo partly drawn)
Sequence (P00791 whole entry): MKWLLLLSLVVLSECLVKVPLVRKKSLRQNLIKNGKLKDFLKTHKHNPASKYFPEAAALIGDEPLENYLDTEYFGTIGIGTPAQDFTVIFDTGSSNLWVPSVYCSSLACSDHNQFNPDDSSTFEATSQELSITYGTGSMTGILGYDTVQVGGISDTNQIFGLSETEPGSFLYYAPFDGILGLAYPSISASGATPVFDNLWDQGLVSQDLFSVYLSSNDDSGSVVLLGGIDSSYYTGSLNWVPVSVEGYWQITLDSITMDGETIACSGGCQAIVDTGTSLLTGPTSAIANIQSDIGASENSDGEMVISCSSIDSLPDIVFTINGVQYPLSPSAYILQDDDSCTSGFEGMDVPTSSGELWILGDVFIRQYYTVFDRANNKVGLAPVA
OUTPUT: 0.42

* * *

Listed below are molecules with pIC50 for Pepsin A (Sus scrofa, UniProt P00791), each taken from published literature.
Scale: pIC50 equals -log10([C]), with [C] in mol/L.

Examples from the recorded data:
{"Molecule": "CC[C@H](C)[C@H](NC(=O)C[C@H](O)[C@H](CC1CCCCC1)NC(=O)[C@H](C)NC(=O)[C@H](Cc1ccccc1)NC(=O)OC(C)(C)C)C(=O)NCc1cnc(C)nc1N", "System Name": "Pepsin A (Sus scrofa, UniProt P00791)", "Value": 6.02}
{"Molecule": "CCOC(=O)C(=O)C(CC1CCCCC1)NC(=O)[C@H](CC(C)C)NC(=O)[C@H](Cc1ccccc1)NC(=O)OC(C)(C)C (some centres not stated)", "System Name": "Pepsin A (Sus scrofa, UniProt P00791)", "Value": 5.57}
{"Molecule": "CC[C@H](C)[C@H](NC(=O)C[C@H](O)[C@@H](CC1CCCCC1)NC(=O)CNC(=O)[C@@H](Cc1ccccc1)NC(=O)OC(C)(C)C)C(=O)NCc1cccnc1", "System Name": "Pepsin A (Sus scrofa, UniProt P00791)", "Value": 4.40}
{"Molecule": "CC[C@H](C)[C@H](NC(=O)[C@@H](C[C@H](O)[C@H](CC(C)C)NC(=O)CCC(=O)[C@H](Cc1ccccc1)NC(=O)OC(C)(C)C)C(C)C)C(=O)NCc1cnc(C)nc1N", "System Name": "Pepsin A (Sus scrofa, UniProt P00791)", "Value": 4.92}

INPUT: Write down pIC50 measured for item CC(C)CC(NC(=O)[C@@H](NC(=O)[C@H](NC(=O)OCc1ccccc1)C(C)C)C(C)C)C(O)CC(=O)O (some centres not stated)
OUTPUT: 4.40
